ASSAY_SYSTEM: HLA-A*69:01
TEST_NAME: IEDB peptide-MHC binding, purified MHC/competitive/fluorescence; filed as Kd, often an IC50 or EC50 that approximates it; bounds were set here for any values at or beyond the usual limits of such assays
CONDITION: source organism: Entamoeba dispar SAW760
OUTCOME_MEASURE: Kd

Sample KGFFRVFKK ; Kd observed: ≥ 20 µM

====

ASSAY_SYSTEM: HLA-A*03:01
TEST_NAME: IEDB peptide-MHC binding, purified MHC/competitive/fluorescence; bounds were set here for any values at or beyond the usual limits of such assays
CONDITION: source organism: Vaccinia virus
OUTCOME_MEASURE: IC50

Kindly note: HLA-A*03:01, SLMEMDYER , IC50 value reported: ≥ 155 µM

Values compiled from the Immune Epitope Database (IEDB).
